# test-protocol: Cell viability assay (MTT) on normal cells
# Type: cell-based
# details: human, MCF-10A normal mammary gland epithelial cells, 4 days incubation
observed-property: viability at 4 days, 50 µM

// known answers, use as guide
CCSc1nc(-c2ccc(OC)cc2)cc(-c2cccc(OC)c2)n1	90%
COc1ccc(-c2cc(-c3ccc(Cl)cc3)nc(SC)n2)cc1	91%
COc1ccc(-c2cc(-c3ccc(Cl)cc3)nc(SC(C)C)n2)cc1OC	90%

Turning to the following compound.
Request: So what's the measured viability at 4 days, 50 µM for this one? `COc1ccc(-c2cc(-c3ccc(Cl)cc3)nc(SC(C)C)n2)cc1`
Result: 89%

---

# System: K-562
# test-protocol: NCI-60 single-dose screen
# Assay type: cell-based
# details: Homo sapiens, K562, single dose 10 µM, '-' = no inhibition, read-out: % Growth Inhibition
Kind request: treat 10% as inclusive, so inhibition at 10 µM at 10% or higher is 1 (yes), anything lower is 0 (no).

COc1ccc(-c2cc(-c3cccc(OC)c3)nc(SC(C)C)n2)cc1	1 (yes)
COc1ccc(-c2cc(-c3cccc(OC)c3)nc(SC)n2)cc1	1 (yes)
COc1ccc(-c2cc(-c3ccc(Cl)cc3)nc(SC(C)C)n2)cc1	1 (yes)
CCCSc1nc(-c2ccc(Cl)cc2)cc(-c2ccc(OC)c(OC)c2)n1	1 (yes)
COc1ccc(CSc2nc(-c3ccc(Cl)cc3)cc(-c3ccc(OC)c(OC)c3)n2)cc1	1 (yes)
CCSc1nc(-c2ccc(Cl)cc2)cc(-c2ccc(OC)cc2)n1	1 (yes)

Request: Quick check, inhibition at 10 µM >= 10%? `C=CCSc1nc(-c2ccc(OC)cc2)cc(-c2cccc(OC)c2)n1`
Result: 1 (yes)

Request: Moving on to the next compound: `COc1ccc(-c2cc(-c3ccc(Cl)cc3)nc(SC)n2)cc1`
Result: 1 (yes)

Request: Moving on to the next compound: `CCCSc1nc(-c2ccc(OC)cc2)cc(-c2cccc(OC)c2)n1`
Result: 1 (yes)

Request: Moving on to the next compound: `CCCSc1nc(-c2ccc(Cl)cc2)cc(-c2ccc(OC)cc2)n1`
Result: 0 (no)

Request: Moving on to the next compound: `C=CCSc1nc(-c2ccc(Cl)cc2)cc(-c2ccc(OC)c(OC)c2)n1`
Result: 1 (yes)

Request: Moving on to the next compound: `CCSc1nc(-c2ccc(Cl)cc2)cc(-c2ccc(OC)c(OC)c2)n1`
Result: 1 (yes)

Request: Moving on to the next compound: `CCSc1nc(-c2ccc(OC)cc2)cc(-c2cccc(OC)c2)n1`
Result: 0 (no)

---

# Tested on: A549/ATCC
# test-protocol: NCI-60 single-dose screen
# Type: cell-based
# details: Homo sapiens, single dose 10 µM, '-' = no inhibition, read-out: % Growth Inhibition
A collection of compounds and their measured inhibition at 10 µM
API: value field is a number in %; no unit string.

COc1ccc(CSc2nc(-c3ccc(Cl)cc3)cc(-c3ccc(OC)c(OC)c3)n2)cc1 [Compound 29]	30.1
CCSc1nc(-c2ccc(Cl)cc2)cc(-c2ccc(OC)c(OC)c2)n1 [Compound 24]	23
COc1ccc(-c2cc(-c3ccc(Cl)cc3)nc(SCc3ccccc3)n2)cc1OC [Compound 28]	18.9
C=CCSc1nc(-c2ccc(Cl)cc2)cc(-c2ccc(OC)c(OC)c2)n1 [Compound 27]	12.3
COc1ccc(-c2cc(-c3cccc(OC)c3)nc(SC(C)C)n2)cc1 [Compound 19]	15.9
CCCSc1nc(-c2ccc(Cl)cc2)cc(-c2ccc(OC)cc2)n1 [Compound 11]	6.74
CCCSc1nc(-c2ccc(Cl)cc2)cc(-c2ccc(OC)c(OC)c2)n1 [Compound 25]	17.3
COc1ccc(-c2cc(-c3cccc(OC)c3)nc(SC)n2)cc1 [Compound 16]	13

Turning to the following compound.
Request: So what's the measured inhibition at 10 µM for this one? CCCSc1nc(-c2ccc(OC)cc2)cc(-c2cccc(OC)c2)n1 [Compound 18]
Result: 7.77

---

# Test system: SW-620
# test-protocol: NCI-60 single-dose screen
# Format: cell-based
# details: Homo sapiens, single dose 10 µM, '-' = no inhibition, read-out: % Growth Inhibition
observed-property: inhibition at 10 µM (%)
API: value field is a number in %; no unit string.

// known answers, use as guide
CCSc1nc(-c2ccc(Cl)cc2)cc(-c2ccc(OC)c(OC)c2)n1 [Compound 24]	20.9
C=CCSc1nc(-c2ccc(Cl)cc2)cc(-c2ccc(OC)c(OC)c2)n1 [Compound 27]	1.7
CCCSc1nc(-c2ccc(Cl)cc2)cc(-c2ccc(OC)c(OC)c2)n1 [Compound 25]	3.63
CCCSc1nc(-c2ccc(Cl)cc2)cc(-c2ccc(OC)cc2)n1 [Compound 11]	0.11
COc1ccc(-c2cc(-c3ccc(Cl)cc3)nc(SCc3ccccc3)n2)cc1OC [Compound 28]	2.79

Request: So what's the measured inhibition at 10 µM for this one? COc1ccc(-c2cc(-c3cccc(OC)c3)nc(SC)n2)cc1 [Compound 16]
Result: 1.89

Request: Moving on to the next molecule: COc1ccc(CSc2nc(-c3ccc(Cl)cc3)cc(-c3ccc(OC)c(OC)c3)n2)cc1 [Compound 29]
Result: 12.7

---

# test-protocol: Cell viability assay (MTT) on normal cells
# Type: cell-based
# details: human, MCF-10A normal mammary gland epithelial cells, 4 days incubation
observed-property: viability at 4 days, 50 µM

// known answers, use as guide
C=CCSc1nc(-c2ccc(OC)cc2)cc(-c2cccc(OC)c2)n1	90%
CCCSc1nc(-c2ccc(Cl)cc2)cc(-c2ccc(OC)cc2)n1	89%

Request: So what's the measured viability at 4 days, 50 µM for this one? `COc1ccc(-c2cc(-c3cccc(OC)c3)nc(SC)n2)cc1`
Result: 92%

Request: Moving on to the next compound: `COc1ccc(CSc2nc(-c3ccc(OC)cc3)cc(-c3cccc(OC)c3)n2)cc1`
Result: 89%

---

A collection of compounds and their measured inhibition at 10 µM
# System: MDA-MB-435
# test-protocol: NCI-60 single-dose screen
# Type: cell-based
# details: Homo sapiens, single dose 10 µM, '-' = no inhibition, read-out: % Growth Inhibition
API: value field is a number in %; no unit string.

// known answers, use as guide
COc1ccc(CSc2nc(-c3ccc(Cl)cc3)cc(-c3ccc(OC)cc3)n2)cc1 [Compound 15]	2.38
COc1ccc(-c2cc(-c3cccc(OC)c3)nc(SC)n2)cc1 [Compound 16]	6.06
C=CCSc1nc(-c2ccc(OC)cc2)cc(-c2cccc(OC)c2)n1 [Compound 20]	1.82
CCCSc1nc(-c2ccc(Cl)cc2)cc(-c2ccc(OC)c(OC)c2)n1 [Compound 25]	0.34
COc1ccc(-c2cc(-c3ccc(Cl)cc3)nc(SCc3ccccc3)n2)cc1 [Compound 14]	3.68

Request: So what's the measured inhibition at 10 µM for this one? COc1ccc(-c2cc(-c3ccc(Cl)cc3)nc(SC)n2)cc1 [Compound 9]
Result: 1.45

Request: Moving on to the next compound: COc1ccc(-c2cc(-c3ccc(Cl)cc3)nc(SC(C)C)n2)cc1OC [Compound 26]
Result: 1.25

Request: Moving on to the next compound: CCCSc1nc(-c2ccc(Cl)cc2)cc(-c2ccc(OC)cc2)n1 [Compound 11]
Result: 1.63

Request: Moving on to the next compound: C=CCSc1nc(-c2ccc(Cl)cc2)cc(-c2ccc(OC)cc2)n1 [Compound 13]
Result: 5.34

Request: Moving on to the next compound: CCSc1nc(-c2ccc(OC)cc2)cc(-c2cccc(OC)c2)n1 [Compound 17]
Result: 2.52

---

Record set of IC50 for target or system EGFR (Homo sapiens).

// known answers, use as guide
CCSc1nc(-c2ccc(OC)cc2)cc(-c2cccc(OC)c2)n1	87 nM
COc1ccc(CSc2nc(-c3ccc(Cl)cc3)cc(-c3ccc(OC)c(OC)c3)n2)cc1	72 nM
COc1ccc(-c2cc(-c3ccc(Cl)cc3)nc(SCc3ccccc3)n2)cc1	90 nM
COc1ccc(-c2cc(-c3cccc(OC)c3)nc(SC(C)C)n2)cc1	83 nM

Turning to the following molecule.
Request: So what's the measured IC50 for this one? `CCCSc1nc(-c2ccc(Cl)cc2)cc(-c2ccc(OC)c(OC)c2)n1`
Result: 78 nM

---

A collection of compounds and their measured inhibition at 10 µM
# Tested on: SW-620
# test-protocol: NCI-60 single-dose screen
# Assay type: cell-based
# details: Homo sapiens, single dose 10 µM, '-' = no inhibition, read-out: % Growth Inhibition
API: value field is a number in %; no unit string.

// known answers, use as guide
COc1ccc(-c2cc(-c3ccc(Cl)cc3)nc(SC(C)C)n2)cc1	5.57
COc1ccc(-c2cc(-c3ccc(Cl)cc3)nc(SC)n2)cc1OC	1.5
COc1ccc(-c2cc(-c3ccc(Cl)cc3)nc(SC)n2)cc1	6.31

Request: So what's the measured inhibition at 10 µM for this one? `COc1ccc(-c2cc(-c3ccc(Cl)cc3)nc(SC(C)C)n2)cc1OC`
Result: 2.64

Request: Moving on to the next compound: `CCSc1nc(-c2ccc(OC)cc2)cc(-c2cccc(OC)c2)n1`
Result: 1.81
